Listing of entries alongside the reported normalized growth.
Test: chemical genetic growth profiling, strain panel (AID 1159580);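 note: tested at 20 µM; growth read once vehicle control cultures reached saturation at 30 °C; 1 = growth at the plate median or of vehicle wells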
Details: S. cerevisiae deletion strains, growth OD, locus YCL016C, strain dcc1, stronger effect = lower value
About 2,000 (36%) of roughly 5,500 compounds were called active. About 18% were inconclusive and are not listed. The list shows a part of the results.
Give your answer as a number; write no unit.

INSERT INTO measurements (compound, test_result) VALUES
  ('CCCc1cc(=O)[nH]c(=S)[nH]1', 1.01),
  ('COc1cc(C(C)=O)cc(OC)c1O', 1.02),
  ('CCOC(=O)NNc1nncc2ccccc12', 1.03),
  ('CC[N+](C)(C)c1cccc(O)c1', 1.02),
  ('CS(=O)(=O)c1ccc([C@@H](O)[C@@H](CO)NC(=O)C(Cl)Cl)cc1', 1.04);

[in] Return value of normalized growth for input CC1(C)CC2C1CC[C@]1(C)CCC3C(C(=O)O)CC(=O)O[C@@]32C1 (stereo partly specified) , no commentary.
[out] 1.06

[in] Return value of normalized growth for input Oc1cccc(O)c1 , no commentary.
[out] 0.956

[in] Return value of normalized growth for input CC12CCC3C(CC3(C)C)C(C)(CCC1=O)O2 (stereo unspecified) , no commentary.
[out] 1.01

[in] Return value of normalized growth for input CCCOc1ccc2nc(NC(=O)OC)[nH]c2c1 , no commentary.
[out] 1.02

[in] Return value of normalized growth for input C=C1c2c(Cl)ccc(O)c2C(O)=C2C(=O)[C@]3(O)C(O)=C(C(N)=O)C(=O)[C@@H](N(C)C)[C@@H]3[C@@H](O)[C@H]12 , no commentary.
[out] 0.936

[in] Return value of normalized growth for input C[C@H]1c2cccc(O)c2C(O)=C2C(=O)[C@]3(O)C(O)=C(C(N)=O)C(=O)[C@@H](N(C)C)[C@@H]3[C@@H](O)[C@@H]21 , no commentary.
[out] 1.02

[in] Return value of normalized growth for input CN(C)[C@@H]1C(=O)C(C(N)=O)=C(O)[C@@]2(O)C(=O)C3=C(O)c4c(O)ccc(Cl)c4[C@@H](O)[C@H]3C[C@@H]12 , no commentary.
[out] 0.964

[in] Return value of normalized growth for input CC(=O)Nc1ccc(S(=O)(=O)Nc2onc(C)c2C)cc1 , no commentary.
[out] 0.969

[in] Return value of normalized growth for input CC(Cc1cccc(C(F)(F)F)c1)NCCOC(=O)c1ccccc1 (stereo unspecified) , no commentary.
[out] 0.969

[in] Return value of normalized growth for input CC(=O)c1ccc(O)c(CC=C(C)C)c1 , no commentary.
[out] 0.999

[in] Return value of normalized growth for input C/C=C\C1=C(C(=O)O)N2C(=O)C(NC(=O)C(N)c3ccc(O)cc3)C2SC1 (stereo unspecified) , no commentary.
[out] 1

---

Assay: chemical genetic growth profiling, strain panel (AID 1159580);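 note: tested at 20 µM; growth read once vehicle control cultures reached saturation at 30 °C; 1 = growth at the plate median or of vehicle wells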
Conditions: S. cerevisiae deletion strains, growth OD, locus YIL125W, strain kgd1, stronger effect = lower value
Among all 5,500 compounds or so, about 2,000 (36%) were called active. Not shown: some 18% with an inconclusive outcome. Some of the results follow.
observable: normalized growth
Give your answer as a number; write no unit.

INSERT INTO assay_data (compound, test_result) VALUES
  ('Nc1ccc(C(=O)O)cc1', 1.01),
  ('Cc1cc(=O)[nH]c(=S)[nH]1', 1),
  ('NNCc1cccc(O)c1', 0.971),
  ('CC(N=C(NC#N)Nc1ccncc1)C(C)(C)C (stereo not drawn)', 1.01);

[in] Return value of normalized growth for input CC(=O)c1cc(CC=C(C)C)c(O)c(CC=C(C)C)c1 , no commentary.
[out] 0.984

[in] Return value of normalized growth for input CC12CCC3C(CC3(C)C)C(C)(CCC1=O)O2 (stereo not drawn) , no commentary.
[out] 1

[in] Return value of normalized growth for input CC1=CC(=O)c2ccccc2C1=O , no commentary.
[out] 0.419

---

Assay: chemical genetic growth profiling, strain panel (AID 1159580);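 note: tested at 20 µM; growth read once vehicle control cultures reached saturation at 30 °C; 1 = growth at the plate median or of vehicle wells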
Details: S. cerevisiae deletion strains, growth OD, locus YER155C, strain BEM2
In all, about 5,500 compounds went through this assay and about 2,000 (36%) were called active. Inconclusive results (about 18%) are left out. Rule as the data show it: active = normalized growth mostly below about 0.91 (no sharp cut-off); inconclusive = no clear call, values can overlap the other calls; inactive = mostly above about 0.92. The list shows a part of the results.
Write down one outcome, taken from active, inactive

Here are 8 molecules together with their reported answers.
INSERT INTO assay_data (molecule, label_class) VALUES
  ('O=C(O)C1=CCCNC1', 'inactive'),
  ('CN[C@@H]1[C@H](O)[C@H](NC)[C@H]2O[C@@]3(O)C(=O)C[C@@H](C)O[C@H]3O[C@@H]2[C@H]1O', 'inactive'),
  ('CC(=O)O[C@H]1CCC2(C)C3=C(CCC2C1(C)C)[C@@]1(C)CC[C@@H](C(C)CCC=C(C)C)[C@]1(C)CC3 (stereo partly specified)', 'inactive'),
  ('CC(C)c1ccc2c(c1)CCC1C(C)(C(N)=O)CCCC21C (stereo unspecified)', 'active'),
  ('CN(C)CCCN1c2ccccc2Sc2ccc(Cl)cc21', 'inactive'),
  ('C=C1C[C@]23C[C@@]1(O)CC[C@H]2[C@@]12C=C[C@H](O)[C@@](C)(C(=O)O1)[C@H]2[C@@H]3C(=O)O', 'inactive'),
  ('CC(C)CCCC(C)[C@H]1CCC2C3CC=C4CC(=O)CC[C@]4(C)C3CC[C@@]21C (stereo partly specified)', 'inactive'),
  ('COc1ccc2cc(CCC(C)=O)ccc2c1', 'inactive');

[in] Record lookup: outcome of this test for Cc1ccc2c(c1)C1(C)CCCC(C)(C(=O)O)C1CC2 (stereo unspecified) ?
[out] inactive

[in] Record lookup: outcome of this test for CN(C)CCCN1c2ccccc2Sc2ccccc21 ?
[out] inactive

[in] Record lookup: outcome of this test for CC(C)CC(NC(=O)OCC1c2ccccc2-c2ccccc21)C(=O)O (stereo unspecified) ?
[out] inactive

[in] Record lookup: outcome of this test for CC(C)CC1NC(=O)CNC1=O (stereo unspecified) ?
[out] inactive

[in] Record lookup: outcome of this test for COc1ccc([C@@H]2CC(=O)c3c(O)cc(O[C@@H]4O[C@H](CO[C@H]5O[C@@H](C)[C@H](O)[C@@H](O)[C@H]5O)[C@@H](O)[C@H](O)[C@H]4O)cc3O2)cc1O ?
[out] inactive

[in] Record lookup: outcome of this test for C=C(C)C1CCC(C)(O)C2CC3OC3(C)C2C1 (stereo unspecified) ?
[out] inactive

[in] Record lookup: outcome of this test for CC(C)=CCCC(C)C1CC[C@@]2(C)C3=C(CC[C@]12C)C1(C)CC[C@H](O)C(C)(C)C1CC3 (stereo partly specified) ?
[out] inactive

[in] Record lookup: outcome of this test for CS(=O)(=O)Nc1ccc([N+](=O)[O-])cc1Oc1ccccc1 ?
[out] inactive

[in] Record lookup: outcome of this test for CC(C)=CCCC(C)[C@@H]1CC[C@]2(C)C3=C(CC[C@@]12C)C1(C)CC[C@H](O)C(C)(C)C1CC3 (stereo partly specified) ?
[out] active

---

Experiment: chemical genetic growth profiling, strain panel (AID 1159580);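 note: tested at 20 µM; growth read once vehicle control cultures reached saturation at 30 °C; 1 = growth at the plate median or of vehicle wells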
Conditions: S. cerevisiae deletion strains, growth OD, locus YHR094C, strain hxt1
Out of some 5,500 compounds screened, about 2,000 (36%) were called active. Another 18% or so got no clear call; they are omitted. No stated cut-off is given here; in the data, active means normalized growth mostly below about 0.91 (no sharp cut-off); inconclusive means no clear call, values can overlap the other calls; inactive means mostly above about 0.92. The list shows a part of the results.
Write down one outcome, taken from y = active, n = inactive

Here are 5 compounds together with their reported answers.
INSERT INTO results (compound, label_class) VALUES
  ('C/C1=C/CC(C)(C)/C=C/C/C(C)=C/CC1', 'n'),
  ('CC(C)=CCCC(C)[C@@H]1CC[C@]2(C)C3=C(CC[C@@]12C)C1(C)CC[C@H](O)C(C)(C)C1CC3 (stereo not given in full)', 'n'),
  ('CCCc1c(OCCCCc2nn[nH]n2)ccc(C(C)=O)c1O', 'n'),
  ('C=C(C)C1CCC(C)(O)C2CC3OC3(C)C2C1 (stereo not given)', 'n'),
  ('CS(=O)(=O)c1ccc([C@@H](O)[C@@H](CO)NC(=O)C(Cl)Cl)cc1', 'n');

[in] Record lookup: outcome of this test for CC(C)=CCCC(C)C1CC[C@@]2(C)C3=C(CC[C@]12C)C1(C)CC[C@H](O)C(C)(C)C1CC3 (stereo not given in full) ?
[out] n

[in] Record lookup: outcome of this test for CC(C)CCCC(C)[C@H]1CCC2C3CC[C@@H]4C[C@H](O)CC[C@]4(C)C3CC[C@@]21C (stereo not given in full) ?
[out] n

[in] Record lookup: outcome of this test for CC(C)CCCC(C)C1CCC2C3C[C@@H](O)[C@@]4(O)C[C@@H](O)CC[C@]4(C)C3CC[C@]12C (stereo not given in full) ?
[out] n

[in] Record lookup: outcome of this test for CC1=CC(=O)c2ccccc2C1=O ?
[out] y

[in] Record lookup: outcome of this test for CCN1CCN(C(=O)NC(C(=O)N[C@@H]2C(=O)N3[C@@H]2SC(C)(C)[C@@H]3C(=O)O)c2ccccc2)C(=O)C1=O (stereo not given in full) ?
[out] n
